# ASSAY_SYSTEM: T1, biotinylated recombinant human Arginase 2 (human, UniProt P78540 23-354, biotin (biotinylated; site not stated))
# T1 chain: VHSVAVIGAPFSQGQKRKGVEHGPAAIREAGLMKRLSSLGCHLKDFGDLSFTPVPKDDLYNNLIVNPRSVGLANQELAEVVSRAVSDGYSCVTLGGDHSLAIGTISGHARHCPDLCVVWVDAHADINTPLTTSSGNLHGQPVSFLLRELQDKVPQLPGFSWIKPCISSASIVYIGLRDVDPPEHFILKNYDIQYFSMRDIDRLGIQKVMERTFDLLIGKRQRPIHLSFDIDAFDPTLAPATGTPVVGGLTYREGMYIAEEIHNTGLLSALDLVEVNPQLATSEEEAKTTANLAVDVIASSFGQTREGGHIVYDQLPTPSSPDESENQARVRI
# ASSAY_PROTOCOL: BLI
PARAMETER: pKd
pKd field: float, defined as -log10 of concentration (mol/L).

Complete the entry with pKd for Fab C0021128 (Fab, V domains shown) VH: EVQLLESGGGLVQPGGSLRLSCAASGFTFQYEVAAWVRQAPGKGLEWVSAISGPIPKGYYADSVKGRFTISRDNSKNTLYLQMNSLRAEDTAVYYCARLRADLGLYMDLWGRGTLVTVSS VL: QSVLTQPPSVSAAPGQKVTISCSGSSSNIGNHYVSWYQQLPGTAPKLLIYDNAIESSGIPDRFSGSKSGTSATLGITGLQTGDGADYYCGTWDSNLSALVFGGGTKLTVL 8.60

Complete the entry with pKd for Fab C0021177 (Fab, V domains shown) VH: EVQLLESGGGLVQPGGSLRLSCAASGFTFRYEVAAWVRQAPGKGLEWVSAISGPAPKGYYADSVKGRFTISRDNSKNTLYLQMNSLRAEDTAVYYCARLRADLGLYMDLWGRGTLVTVSS VL: QSELTQPPTASAAPGQKVTISCSGSSSNIGNHYVSWYQQLPGTAPKLLIYDTTVLSSGIPDRFSGSKSGTSATLGITGLQTGDEADYYCGTWDELTSNLVFGGGTKLTVL 9.77

Complete the entry with pKd for Fab C0021181 (Fab, V domains shown) VH: EVQLLESGGGLVRPGGSLRLSCAASEFTFRYDYHVWVRQAPGKGLEWVSAISGSGGSTYYADSVKSRFTISRDNSKNTLYLQMNSLRAEDTAVYYCARLRADLGLYMDLWGRGTLVTVSS VL: QSVLTQPPSVSAAPGQKVAVSCSGSSSNIGSHYVSWYQQLPGTAPKLLIYDNSERTSGIPDRFSGSKSGTSATLGITGLQTGDEADYYCGTWDELTSNLVFGGGTRLTVL 9.54

Complete the entry with pKd for Fab C0021158 (Fab, V domains shown) VH: EVQLLESGGGLVQPGGSLRLSCAASGFTFRYEVAAWVRQAPGKGLEWVSAISGPIPKGYYADSVKGRFTISRDNSKNTLYLQMNSLRAEDTAVYYCARLRADLGLYMDLWGRGTLVTVSS VL: QSVLTQPPSVSAAPGQKVTISCSGSSSNIGNHYVSWYQQLPGTAPKLLIYDNSERTAGVPDRFSGSKSGTSATLGITGLQTGDEADYYCGTWDELTSNLVFGGGTKLTVL 9.77

Complete the entry with pKd for Fab C0021133 (Fab, V domains shown) VH: EVQLLESGGGLVQPGGSLRLSCAASGFTFRYDHHVWVRQAPGKGLEWVSAISGSGGSTYYADSVKGRFTISRDNSKNTLYLQMNSLRAEDTAVYYCARLRADLGLYMDLWGRGTLVTVSS VL: QSVLTQPPSVSAAPGQKVTVSCSGSSSNIGNHYVSWYQQLPGTAPKLLIYDTTVLSSGIPDRFSGSKSGTSATLGITGLQTGDEADYYCGTWDELTSNLVFGGGTKLTVL 8.68

Complete the entry with pKd for Fab C0021139 (Fab, V domains shown) VH: EVQLLESGGGLVQPGGSLRLSCAASGFTFQYDYQVWVRQAPGKGLEWVSAISGSGGSTYYADSVKGRFTISRDNSKNTLYLQMNSLRAEDTAVYYCARLRADLGLYMDLWGRGTLVTVSS VL: QSVLTQPPSVSAAPGQKVTISCSGSSSNIGNHYVSWYQQLPGTAPKLLIYDNSERTSGIPDRFSGSKSGTSATLGITGLQTGDEADYYCGTWDELTSNLVFGGGTKLTVL 8.36

All values here come from paper PMC7382286.
